Molecular target: Cytochrome P450 2D6 (Homo sapiens) (UniProt P10635)
Sequence (P10635 whole entry, looked up): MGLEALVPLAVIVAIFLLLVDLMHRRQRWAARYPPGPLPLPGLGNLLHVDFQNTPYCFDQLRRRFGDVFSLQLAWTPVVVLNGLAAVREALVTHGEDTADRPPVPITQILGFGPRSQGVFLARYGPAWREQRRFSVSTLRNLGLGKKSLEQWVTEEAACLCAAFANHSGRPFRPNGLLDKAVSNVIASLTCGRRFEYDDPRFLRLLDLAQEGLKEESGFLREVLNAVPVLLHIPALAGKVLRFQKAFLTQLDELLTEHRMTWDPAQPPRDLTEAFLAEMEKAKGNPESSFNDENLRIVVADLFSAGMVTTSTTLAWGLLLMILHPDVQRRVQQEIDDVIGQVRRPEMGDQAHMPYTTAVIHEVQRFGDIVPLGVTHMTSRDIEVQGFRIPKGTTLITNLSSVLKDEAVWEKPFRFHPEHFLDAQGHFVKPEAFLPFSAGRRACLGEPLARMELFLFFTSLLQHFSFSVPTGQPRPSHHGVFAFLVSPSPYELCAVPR
Assay: Cytochrome P450 Family 2 Subfamily D Member 6 (CYP2D6) small molecule antagonists: luciferase reporter qHTS assay (AID 1671196); further: nearly all actives have a fitted effect of over 50% in size
Settings: P450-Glo CYP2D6 enzyme assay, luciferin luminescence, 1 h; series mostly up to 115 µM
Excerpt: U.S. Tox21 Program National Center for Advancing Translational Sciences [NCATS] U.S. Environmental Protection Agency [EPA] National Institutes of Environmental Health Sciences [NIEHS] National Toxicology Program [NTP] U.S. Food and Drug Administration [FDA] […] The luciferin products formed are detected with a luciferin detection reagent, and the amount of light produced is proportional to CYP activity. […]
Inconclusive results are not listed. Calls of active or inactive are those of the source. The call rests on the fitted dose curve; in most records, active means well fitted inhibition curve with a large enough effect in the repeat runs; inconclusive means weak or mixed curves; inactive means no such curve, though single readings can be large or run the other way.
Valid outcomes are listed here; reply with one: 1 (active), 0 (inactive)

Worked examples, 3 molecules total:
| MOLECULE | CLASS |
| --- | --- |
| C[C@@H](c1ncncc1F)C(O)(Cn1cncn1)c1ccc(F)cc1F (stereo not given in full) | 0 |
| CCOC(=O)C(O)c1ccccc1 (stereo not given) | 0 |
| CCO[C@H](Cc1ccc(OCCc2ccc(OS(C)(=O)=O)cc2)cc1)C(=O)O | 0 |

Problem: Tell me the assay call for CCCCCCCCCCCC(=O)OC[C@@H](O)[C@H]1OC[C@H](OCCO)[C@H]1OCCO please.
Solution: 0

---

assay: qHTS assay to identify small molecule antagonists of the estrogen related receptor (ERR) signaling pathway from Tox21 library - cell viability counter screen (AID 1224834); conditions: ERR reporter cells viability, CellTiter-Fluor, 17.5 h; series mostly up to 92.4 µM; further: nearly all actives have a fitted effect of over 30% in size
Results filed as inconclusive are left out. Active and inactive are the calls of the source. Calls follow the shape of the dose curve; as a rule, active = well fitted cell-killing curve with a large enough effect in the repeat runs; inconclusive = weak or mixed curves; inactive = flat fitted curve, though single readings scatter.
Valid outcomes are listed here; reply with one: t = active, f = inactive

Problem: Tell me the assay call for Nc1c(CC(=O)O)cccc1C(=O)c1ccc(Br)cc1 please.
Solution: f

Problem: Tell me the assay call for ClCCOCCOCCCl please.
Solution: f

Problem: Tell me the assay call for CCOc1ccc(N=Nc2ccc(/C=C/c3ccc(N=Nc4ccc(OCC)cc4)cc3S(=O)(=O)O)c(S(=O)(=O)O)c2)cc1 please.
Solution: t

Problem: Tell me the assay call for CCCCCCCCCCCCN1CCCCCC1=O please.
Solution: f

Problem: Tell me the assay call for C=CC(=O)OCCOc1ccccc1 please.
Solution: f

Problem: Tell me the assay call for CC1(c2ccccc2)OC(C(=O)O)=CC1=O (configuration not stated) please.
Solution: f

Problem: Tell me the assay call for C=C(C)C(=O)OCCOCC please.
Solution: f

Problem: Tell me the assay call for CC[N+]1(CC)CCC(=C(c2ccccc2)c2ccccc2)C1C (configuration not stated) please.
Solution: f

Problem: Tell me the assay call for CC(C)(O)c1ccc(CNC(=O)c2cccnc2Oc2ccc(F)cc2)cc1 please.
Solution: f

Problem: Tell me the assay call for CCOC(=O)Cc1cccc2ccccc12 please.
Solution: f

Problem: Tell me the assay call for CCC(C)O (configuration not stated) please.
Solution: f

---

assay: qHTS assay to identify small molecule antagonists of the thyroid receptor (TR) signaling pathway - cell viability counter screen (AID 743064); conditions: GH3.TRE-Luc viability, CellTiter-Fluor, 24 h; series mostly up to 70.3 µM; further: nearly all actives have a fitted effect of over 50% in size
Inconclusive results are not listed. Calls of active or inactive are those of the source. The call rests on the fitted dose curve; in most records, active means well fitted cell-killing curve with a large enough effect in the repeat runs; inconclusive means weak or mixed curves, or effect the other way; inactive means no such curve, though single readings can be large or run the other way.
Valid outcomes are listed here; reply with one: active, inactive

| COMPOUND | CLASS |
| --- | --- |
| CNCCCN1c2ccccc2CCc2ccccc21 | active |

Problem: Tell me the assay call for O=C(O)c1ccc(S(=O)(=O)O)cc1C(=O)O please.
Solution: inactive

Problem: Tell me the assay call for C=C(C)C(=O)OCC please.
Solution: inactive

Problem: Tell me the assay call for c1cc(CCCc2ccncc2)ccn1 please.
Solution: inactive

Problem: Tell me the assay call for CCCCCCCCCCCC(=O)OC[C@@H](O)[C@H]1OC[C@H](OCCO)[C@H]1OCCO please.
Solution: inactive

Problem: Tell me the assay call for O=C(O)c1nc(Cl)c(Cl)c(Cl)c1Cl please.
Solution: inactive

---

Experiment: qHTS assay to identify small molecule antagonists of the constitutive androstane receptor (CAR) signaling pathway - cell viability counter screen (AID 1224837); further: nearly all actives have a fitted effect of over 45% in size
Settings: HepG2-CYP2B6-hCAR viability, CellTiter-Fluor, 23 h, co-treated with 50 nM CITCO; series mostly up to 92.4 µM
Method: National Center for Advancing Translational Sciences [NCATS] NIH Chemical Genomics Center [NCGC] U.S. Environmental Protection Agency [EPA] National Institutes of Environmental Health Sciences [NIEHS] National Toxicology Program [NTP] […] A double-stable (hCAR and CYP2B6-2.2kb) transfected cell line, derived from human hepatoma (HepG2) cells, was utilized for the duration of the quantitative high-throughput screens. […] The fluorescence intensity in the plates was then measured using a ViewLux plate reader.
Records with an inconclusive call do not appear. Activity calls are given as the source filed them. The call rests on the fitted dose curve; in most records, active means well fitted cell-killing curve with a large enough effect in the repeat runs; inconclusive means weak or mixed curves, or effect the other way; inactive means flat fitted curve, though single readings scatter.
Valid outcomes are listed here; reply with one: true (active), false (inactive)

Worked examples, 5 molecules total:
| MOLECULE | CLASS |
| --- | --- |
| CCOC(=O)Cc1cccc2ccccc12 | false |
| O=C1[C@H]2CCCC[C@H]2C(=O)N1CCCCN1CCN(c2nsc3ccccc23)CC1 | false |
| OCCNCc1ccccc1 | false |
| CC1OC(=O)C(C)OC1=O (stereo unspecified) | false |
| O=C1CCC(=O)O1 | false |

Problem: Tell me the assay call for CC(C)(C)OCC1CO1 (stereo unspecified) please.
Solution: false

Problem: Tell me the assay call for O=C(NCC1CN(c2ccc(N3CCOCC3=O)cc2)C(=O)O1)c1ccc(Cl)s1 (stereo unspecified) please.
Solution: false

---

experiment: qHTS assay for identifying genotoxic compounds that show differential cytotoxicity against isogenic chicken DT40 cell lines with known DNA damage response pathways - Rev3 mutant cell line (AID 743014); settings: chicken DT40 Rev3-/- viability, CellTiter-Glo, 40 h; series mostly up to 68.4 µM; further: nearly all actives have a fitted effect of over 55% in size
Inconclusive results are not listed. The source made the active and inactive calls. Calls follow the shape of the dose curve; as a rule, active = well fitted cell-killing curve with a large enough effect in the repeat runs; inconclusive = weak or mixed curves, or effect the other way; inactive = no such curve, though single readings can be large or run the other way.
Valid outcomes are listed here; reply with one: active, inactive

| COMPOUND | CLASS |
| --- | --- |
| CCCNCC(O)COc1ccccc1C(=O)CCc1ccccc1 (stereo not drawn) | active |

Problem: Tell me the assay call for O=C(CS)Nc1ccccc1 please.
Solution: active

Problem: Tell me the assay call for O=S(=O)(Oc1ccc(Cl)cc1)c1ccccc1 please.
Solution: active

Problem: Tell me the assay call for O=C1OC(CN2CCOCC2)CN1/N=C/c1ccc([N+](=O)[O-])o1 (stereo not drawn) please.
Solution: inactive

Problem: Tell me the assay call for CC(=O)[O][Al][O]C(C)=O please.
Solution: inactive

Problem: Tell me the assay call for O=C(O)c1ccc(-n2nc(-c3ccccc3O)nc2-c2ccccc2O)cc1 please.
Solution: active

Problem: Tell me the assay call for CCOC(=O)COC(=O)c1cc(Oc2ccc(C(F)(F)F)cc2Cl)ccc1[N+](=O)[O-] please.
Solution: active

Problem: Tell me the assay call for CCCCC/C=C\C/C=C\CCCCCCCC(=O)NC(C)c1ccccc1 (stereo not drawn) please.
Solution: inactive

Problem: Tell me the assay call for CC1OC(=O)C(C)OC1=O (stereo not drawn) please.
Solution: inactive

---

experiment: qHTS assay for small molecules that induce genotoxicity in human embryonic kidney cells expressing luciferase-tagged ATAD5 - cell viability (AID 651634); conditions: HEK293T ATAD5-luc cells viability, CellTiter-Fluor, 15.5 h; series mostly up to 83.3 µM; further: nearly all actives have a fitted effect of over 25% in size
Records with an inconclusive call do not appear. Calls of active or inactive are those of the source. Calls follow the shape of the full dose curve.
Valid outcomes are listed here; reply with one: Y for active, N for inactive

| COMPOUND | CLASS |
| --- | --- |
| CC1(c2ccccc2)OC(C(=O)O)=CC1=O (stereo unspecified) | N |
| CCN(CC)c1ccc2c(-c3ccccc3C(=O)O)c3ccc(=[N+](CC)CC)cc-3oc2c1 | Y |
| CCCCc1ncc(/C=C(\Cc2cccs2)C(=O)O)n1Cc1ccc(C(=O)O)cc1 | N |
| Cc1ccccc1S(=O)(=O)O | N |
| Cc1ncc(CO)c(C=O)c1O | N |

Problem: Tell me the assay call for O=C(NCCO[N+](=O)[O-])c1cccnc1 please.
Solution: N

Problem: Tell me the assay call for Cc1nn(C)c(Oc2ccccc2)c1/C=N/OCc1ccc(C(=O)OC(C)(C)C)cc1 please.
Solution: N

Problem: Tell me the assay call for CN(C)C(=O)NC1(c2ccccc2)CCN(CC[C@@]2(c3ccc(F)c(F)c3)CN(C(=O)c3ccccc3)CCO2)CC1 please.
Solution: N

Problem: Tell me the assay call for Nc1cccc(S(=O)(=O)c2cccc(N)c2)c1 please.
Solution: N

Problem: Tell me the assay call for CC(=O)OC[C@H]1O[C@@H](n2ncc(=O)[nH]c2=O)[C@H](OC(C)=O)[C@@H]1OC(C)=O please.
Solution: N

Problem: Tell me the assay call for CC(C)(COC(=O)c1ccccc1)COC(=O)c1ccccc1 please.
Solution: N

Problem: Tell me the assay call for CCCCO please.
Solution: N

Problem: Tell me the assay call for NCc1ccccc1Sc1ccccc1CO please.
Solution: N

Problem: Tell me the assay call for COc1cccc(N(C)C(=S)Oc2ccc3c(c2)CCCC3)n1 please.
Solution: N

Problem: Tell me the assay call for C[C@@H](c1ncncc1F)C(O)(Cn1cncn1)c1ccc(F)cc1F (stereo partly specified) please.
Solution: N

Problem: Tell me the assay call for C=CC(=O)OCCOCCOC(=O)C=C please.
Solution: Y

Problem: Tell me the assay call for CC(C)(C)OCC1CO1 (stereo unspecified) please.
Solution: N

Problem: Tell me the assay call for COc1ccnc(CS(=O)c2nc3ccc(OC(F)F)cc3[nH]2)c1OC (stereo unspecified) please.
Solution: N

Problem: Tell me the assay call for c1cc(CCCc2ccncc2)ccn1 please.
Solution: N

Problem: Tell me the assay call for C[Si](C)(CCCN)O[Si](C)(C)CCCN please.
Solution: N

Problem: Tell me the assay call for COc1ccc(C(=O)c2ccc(OC)cc2O)c(O)c1 please.
Solution: N

Problem: Tell me the assay call for Nc1ccc(N)c2c1C(=O)c1ccccc1C2=O please.
Solution: Y

Problem: Tell me the assay call for CCOC(=O)Cc1cccc2ccccc12 please.
Solution: N

Problem: Tell me the assay call for COC(C)OC please.
Solution: N
